System: MCF7
Experiment: Growth inhibition of Homo sapiens (human) MCF7 cells at 60 ug/ml after 48 hr by MTT assay relative to control
Type: functional
Settings: MCF7, 48 h, read-out: GI
Hi, to clarify the labels: met covers inhibition of growth at 60 µg/mL from 70% upward, not met covers anything below 70%.

| mol | category |
| --- | --- |
| O=c1cc(-c2ccccc2)oc2ccc(N3COc4c(Br)cccc4C3)cc12 | met |

IN: Dear colleague, could you confirm whether "O=c1cc(-c2ccccc2)oc2cc(N3COc4c(cccc4[N+](=O)[O-])C3)ccc12" has inhibition of growth at 60 µg/mL at or above 70%?
OUT: not met

IN: Dear colleague, could you confirm whether "O=c1cc(-c2ccccc2)oc2ccc(N3COc4ccccc4C3)cc12" has inhibition of growth at 60 µg/mL at or above 70%?
OUT: met
